- System name: CD73 on U138 neuroglioma cells (Homo sapiens, UniProt P21589)
- Construct: U138 neuroglioma cells, which express CD73 on their surface; endogenous in cells; host or cells: U138 neuroglioma cells (ATCC)
- Sequence (P21589 27-549): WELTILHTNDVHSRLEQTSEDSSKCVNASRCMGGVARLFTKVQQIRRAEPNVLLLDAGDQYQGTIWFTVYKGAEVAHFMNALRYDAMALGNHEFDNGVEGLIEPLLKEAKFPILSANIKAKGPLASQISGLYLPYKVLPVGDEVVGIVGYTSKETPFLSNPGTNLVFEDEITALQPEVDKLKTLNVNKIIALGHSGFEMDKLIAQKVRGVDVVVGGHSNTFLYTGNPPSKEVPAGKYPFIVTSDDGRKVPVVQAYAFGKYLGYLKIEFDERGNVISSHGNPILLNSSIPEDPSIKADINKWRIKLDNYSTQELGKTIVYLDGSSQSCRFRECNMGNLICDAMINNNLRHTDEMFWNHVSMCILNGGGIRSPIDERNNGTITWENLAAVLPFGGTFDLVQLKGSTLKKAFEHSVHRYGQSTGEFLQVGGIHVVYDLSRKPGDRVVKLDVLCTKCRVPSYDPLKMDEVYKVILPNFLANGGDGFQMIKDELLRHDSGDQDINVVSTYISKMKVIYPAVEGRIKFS
- Protocol notes: Inhibition of Ecto-5′-Nucleotidase Activity in U138 Neuroglioma Cells (Assay 2)
- Format: cell-based
- Applied conditions: 50 μM CMP, 2 hr at 37° C., malachite green readout, read-out: Assay 2: IC50, inhibition of ecto-5′-nucleotidase activity in U138 neuroglioma cells
- Protocol: Inhibition of Ecto-5′-Nucleotidase Activity in U138 Neuroglioma Cells (Assay 2) U138 cells were obtained from the American Type Culture Collection (ATCC) (Manassas, Va.), and cultured in complete growth media (DMEM, 10% FBS, 1 mM L-glutamine, 100 U penicillin-streptomycin) at 37° C., 5% CO2. […] After 2 hr at 37° C., 5% CO2, 100 μL of supernatant was removed from the cells and the concentration of inorganic phosphate was determined using malachite green reagent. […]
pIC50: −log10 of the molar value.
pIC50 for assorted molecules

Molecule | System name | pIC50
CCOC(=O)C(OC[C@H]1O[C@@H](n2cnc3c(N)nc(SC)nc32)[C@H](O)[C@@H]1O)P(=O)(O)O (stereo partly drawn) | CD73 on U138 neuroglioma cells (Homo sapiens, UniProt P21589) | < 6.00
CCOc1nc(Cl)nc2c1ncn2[C@@H]1O[C@H](COC(C(=O)O)P(=O)(O)O)[C@@H](O)[C@H]1O (stereo partly drawn) | CD73 on U138 neuroglioma cells (Homo sapiens, UniProt P21589) | 6.00 to 7.00
CC(C)(C)OC(=O)C(OC[C@H]1C[C@@H](n2cnc3c(N)nc(Cl)nc32)[C@H](O)[C@@H]1O)P(=O)(O)O (single isomer, unassigned) [Example 78a] | CD73 on U138 neuroglioma cells (Homo sapiens, UniProt P21589) | < 6.00
